run conditions: in acetonitrile, 283.15 K
endpoint label: solubility (mole fraction)
Numbers only.

q: Look up solubility (mole fraction): "CCOC(=O)C1(c2ccccc2)CCN(CCC(C#N)(c2ccccc2)c2ccccc2)CC1"
a: 0.00256

---

run conditions: in water, 278.15 K
endpoint label: solubility (mole fraction)
One number for each entry.

q: Name the reported solubility (mole fraction) value associated with the compound "CCOC(=O)C1(c2ccccc2)CCN(CCC(C#N)(c2ccccc2)c2ccccc2)CC1"
a: 4.09e-06

---

run conditions: in acetonitrile, 288.15 K
endpoint label: solubility (mole fraction)

q: State the recorded solubility (mole fraction) for this entry: "CCOC(=O)C1(c2ccccc2)CCN(CCC(C#N)(c2ccccc2)c2ccccc2)CC1"
a: 0.0033
